Where do these numbers come from? They come from the MegaScale stability set (Tsuboyama et al. 2023).

B1: EEHEE_rd4_0763 (parent)
chain: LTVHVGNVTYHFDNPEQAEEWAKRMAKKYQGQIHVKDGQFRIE

Variants of: B1
test_summary: folding stability dG (cDNA display proteolysis); higher = more stable
applied_conditions: PBS, room temperature
We begin with a simple list: items and their reported folding stability dG.
Write it as a number; the unit kcal/mol goes unstated.

Give me measured folding stability dG, please, for this variant: F12M 0.22

Give me measured folding stability dG, please, for this variant: M25E 0.535

Give me measured folding stability dG, please, for this variant: K27C 2.38

Give me measured folding stability dG, please, for this variant: T2K 1.41

Give me measured folding stability dG, please, for this variant: V35S 1.15

More entries:
Give me measured folding stability dG, please, for this variant: N7L 1.55

Give me measured folding stability dG, please, for this variant: K36E 1.84

Give me measured folding stability dG, please, for this variant: Q39S 1.57

Give me measured folding stability dG, please, for this variant: Q30L 1.39

Give me measured folding stability dG, please, for this variant: N7F 1.62
